System: huCD28 (human, UniProt P10747 19-152, limits assumed)
Experiment: SPR, OAA format
The entries below are paired with their reported koff.
Experimental Readout: koff (s⁻¹)

>  <Binder>
v37891 (antibody, V domains shown, OAA format as v34891; also called huTN228 L1053I (VH) OAA) VH: QVQLQESGPGLVKPSETLSLTCAVSGFSLTSYGVHWIRQPPGKGLEWIGVIWPGGGTNFNSALMSRLTISEDTSKNQVSLKLSSVTAADTAVYYCARDRAYGNYLYAMDYWGQGTLVTVSS VL: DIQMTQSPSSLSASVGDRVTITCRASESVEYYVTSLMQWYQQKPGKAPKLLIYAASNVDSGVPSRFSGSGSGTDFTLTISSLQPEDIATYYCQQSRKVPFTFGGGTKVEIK

>  <Experimental Readout>
koff

>  <Experimental Result>
0.0028

$$$$
>  <Binder>
v37841 (antibody, V domains shown, OAA format as v34891; also called huTN228 S1029A (VH) OAA) VH: QVQLQESGPGLVKPSETLSLTCAVSGFALTSYGVHWIRQPPGKGLEWLGVIWPGGGTNFNSALMSRLTISEDTSKNQVSLKLSSVTAADTAVYYCARDRAYGNYLYAMDYWGQGTLVTVSS VL: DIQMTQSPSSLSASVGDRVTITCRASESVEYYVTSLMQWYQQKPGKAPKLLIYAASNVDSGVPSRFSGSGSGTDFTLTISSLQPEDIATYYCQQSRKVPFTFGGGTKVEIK

>  <Experimental Readout>
koff

>  <Experimental Result>
0.00322

$$$$
>  <Binder>
v37851 (antibody, V domains shown, OAA format as v34891; also called huTN228 N1066A (VH) OAA) VH: QVQLQESGPGLVKPSETLSLTCAVSGFSLTSYGVHWIRQPPGKGLEWLGVIWPGGGTAFNSALMSRLTISEDTSKNQVSLKLSSVTAADTAVYYCARDRAYGNYLYAMDYWGQGTLVTVSS VL: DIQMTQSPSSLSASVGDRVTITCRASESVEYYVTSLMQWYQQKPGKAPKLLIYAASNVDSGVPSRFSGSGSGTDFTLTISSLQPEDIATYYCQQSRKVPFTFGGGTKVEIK

>  <Experimental Readout>
koff

>  <Experimental Result>
0.037

$$$$
